Attribution: the supplement of paper PMC9170038

Test system: MS2 coat protein
Assay protocol: apparent KD of MS2 coat protein; designed switch direction (-1 OFF switch, 1 ON switch): 1; higher = weaker reporter binding
Cond: Eterna round: R95; input ligand: FMN 200 uM
Listed next: entries and their corresponding apparent KD of MS2 coat protein.
The answer should read as a number with its unit following.

Here's what some known entries look like.
UGUCCAGCCUGAGCUGGACAAAAGCAUGUACAUGAGGAUCACCCAUGUUCAUGUACAAGCUUUUUGCUCGUCUUACA [salish99_208a_r3_080] (puzzle: Sensor for hsa-mir-208a) | 0.347 µM
GGAGCCGGCACCGAGGAUAUUCAUAUUAAAACAUGAGGAUCACCCAUGUAGGCCAGAAGGCCUUGGGAGAAGGCGGACCGGCUCG [Xeonanis - 4] (puzzle: Same State 2) | 0.024 µM

Please look up its apparent KD of MS2 coat protein: UAGAAACAUGAGGAUCACCCAUGUGUCAAAGACAUAGGAUAUCACAACUGGCGCCAGUCGUGAGAAGGGUGGUAAA [Usonesat] (puzzle: Same State 1)
0.229 µM

Please look up its apparent KD of MS2 coat protein: AGAGCCGGCACCGAGGAUAUUCAUAUUAAAACAUGAGGAUCACCCAUGUAGGCCAGAAGGCCUUGGGAGAAGGCGGAUCGGCUCG [Xeonanis - 7] (puzzle: Same State 2)
0.0283 µM

====

System: MS2 coat protein
Assay protocol: apparent KD of MS2 coat protein; designed switch direction (-1 OFF switch, 1 ON switch): -1; higher = weaker reporter binding
Cond: input ligand: FMN 200 uM
Result type: apparent KD of MS2 coat protein (nM)
Expressed in nM, but write only the number.

Here's what some known entries look like.
GCCCGUGGGCAAGGAUAUCCUACGCUGUUCUGGUUCGUGUCUGUCACAUGAGGAUCACCCAUGUGGGAGAAGGUGCAUUAGGGU [Design 54] (Eterna round: R96, puzzle: Exclusion NG 2) | 16.7
AGCCACAGAGGAUAUACAUACAUCCAGUAGUUAAGAAUAUUACAUGAGGAUCACCCAUGUAGAAGGCUGUGGCA [Omei Ex2 BD B7] (Eterna round: R97, puzzle: Exclusion 2) | 352
AUAAUUAGAGGAUAUGGUACAUUGCACAUGAGGAUCACCCAUGUAAGGUGACCCAUGUCGCCAGAAGGCUGAUAUG [Eternabot (L2) Solution 46] (Eterna round: R97, puzzle: Exclusion 5) | 3460
CAUUAUGUUGAGGAUAUGCGCCGGCUCGCUGACGCAGAAGGCGACACAUGAGGAUCACCCAUGUCAGUUCGCGA [salish99_ex6_r004_420] (Eterna round: R97, puzzle: Exclusion 6) | 15.8
UACAUGAGGAUCACCCAUGUUUUGUCGUGUAUGGUAUUUAUCUAGGAUAUCAUUCUAUUUAUUUAUGAGAAGGAGAAUAUUAAU [JMF's solution 98] (Eterna round: R96, puzzle: Exclusion NG 3) | 33.4

Please look up its apparent KD of MS2 coat protein: CGUCUGUAAGGAUAUGGUAGCAUUUACAUGAGGAUCACCCAUGUUACAUGGGACUAGUGACUAGAAGGUACGAACG [EX5 #54] (Eterna round: R97, puzzle: Exclusion 5)
106

Please look up its apparent KD of MS2 coat protein: UUAAUUAAUUAAGCGCAAGAUCACAUGAGGAUCACCCAUGUAUAGGAUAUCAGCUCGUUUAGAGCUGAGAAGGAUACAUAGCGC [ExNG3/2-A2] (Eterna round: R96, puzzle: Exclusion NG 3)
738

Please look up its apparent KD of MS2 coat protein: GAGAGGAGUGUAGGAUAUUUAAGGGAGGAGGAGGGAGAAGGACAUGAGGAUCACCCAUGUAGGAAGAGAGGAGGAGUACAGGAG [Default title] (Eterna round: R96, puzzle: Exclusion NG 1)
46.1

Please look up its apparent KD of MS2 coat protein: GCUAGAGCAGGAUAUUUAGAUCCUCACAUGAGGAUCACCCAUGUGGUCGAAAGACUAAGAAGAGAAGGGCUCUAGC [Omei Ex5 E21] (Eterna round: R97, puzzle: Exclusion 5)
326

Please look up its apparent KD of MS2 coat protein: CCCGAGGAAGGAUAUACAUGAGGAUCACCCAUGUGCGUUGGGACUGGCGUGGUCUUCAGUAGAAGGUCCGCGCC [Esdiza] (Eterna round: R97, puzzle: Exclusion 3)
48.7

Please look up its apparent KD of MS2 coat protein: CAGUACUGAGGAUAUACAUGAGGAUCACCCAUGUGUUCCAGCUAGGAAACUAGCGAAAGUAGAAGGCAGUACUG [salish99_ex3_r3_068] (Eterna round: R96, puzzle: Exclusion 3)
562

Please look up its apparent KD of MS2 coat protein: AACUUACAUGAGGAUCACCCAUGUCAGGAUAUCGAAAUUGGCCUGCAAUUACAGGCGACGAGAAGGGACGUUUU [EX1 B.24] (Eterna round: R97, puzzle: Exclusion 1)
29.3
